- Test system: HL-60(TB) leukemia
- EXPERIMENT_DESCRIPTION: NCI tumour cell line growth inhibition, 48 h
Please go through the items and note down their GI50.

Name the recorded GI50 for `O=C1/C(=C/c2ccc(Cl)cc2)N=C(c2ccccc2)N1c1cc(C(F)(F)F)ccc1Cl` .
16.9 µM

# iterate: `O=C(Nc1ccc(Cl)cc1)c1cc(NCc2cc(O)ccc2O)ccc1O`
1.4 µM

Please do the same for `[Mn+3].[O-][Cl+3]([O-])([O-])O.[O-]c1ccccc1C=NCCN1CC1.[O-]c1ccccc1C=NCCN1CC1` as well.
14.7 µM

Likewise for `COc1ccc(NC(=O)c2ccc(C(F)(F)F)nc2Nc2ccc(Cl)cc2C)cc1Cl` ?
2.4 µM

One more compound: `C[C@]12CC[C@@H]3c4ccc(O)cc4CC[C@H]3[C@@H]1CC(Cc1ccccc1)(Cc1ccccc1)C2=O`
4.75 µM

Moving on to `CCOc1ccc(Nc2ccnc3cc(Cl)ccc23)cc1`
> 100 µM

What about `CC1(C)N=C(N)N=C(N)N1c1cccc(CCCCc2ccc(Cl)c(S(=O)(=O)F)c2)c1` ?
0.563 µM

Now the compound CO[C@H]1/C=C/O[C@@]2(C)Oc3c(C)c(O)c4c(O)c(c(/C=N/N5C(C)CN(Cc6ccc(C#N)cc6)CC5C)c(O)c4c3C2=O)NC(=O)/C(C)=C\C=C\[C@H](C)[C@H](O)[C@@H](C)[C@@H](O)[C@@H](C)[C@H](OC(C)=O)[C@@H]1C (stereo partly drawn)
7.19 µM

* * *

- Tested on: HCT-15 colon
- EXPERIMENT_DESCRIPTION: NCI tumour cell line growth inhibition, 48 h
Where a SMILES comes first, the peptide text is derived from it.
Assign TGI to each entry below.

Report TGI for `O=C(N/N=C/c1ccc([N+](=O)[O-])cc1)c1ccccc1Nc1ccnc(C(F)(F)F)c1` please.
> 100 µM

Again, but for `CCOC(=O)NC(=O)c1cn(CCN(CCO)C(=O)NCCCCCCNC(=O)N(CCO)CCn2cc(C(=O)NC(=O)OCC)c(=O)[nH]c2=O)c(=O)[nH]c1=O`
> 100 µM

Subsequent entry: CC(=O)NC(CS)C(=O)NC(CO)C(=O)NC(CO)C(=O)NC(Cc1c[nH]c2ccccc12)C(=O)N1CCCC1C(=O)NC(CO)C(=O)NC(Cc1c[nH]c2ccccc12)C(=O)NC(Cc1c[nH]cn1)C(=O)NC(CO)C(=O)NC(Cc1c[nH]c2ccccc12)C(=O)NCC(=O)NCC(=O)NC(C)C(=O)NC(CCC(N)=O)C(=O)NC(CCCCN)C(=O)NC(C)C(=O)NC(CCCNC(=N)N)C(=O)NC(CCCCN)C(N)=O (centres undefined) (Ac-CSSWPSWHSWGGAQKARK-NH2; configuration not given here)
> 50 µM

Same read-out for `O=C(O)CN1CCN2CCCCCCCCN(CC1)CCN(CC(=O)O)CC2` ?
> 100 µM

Another compound: `Cc1ccc(N2C=Nn3c(nc4sc5c(c4c3=O)CCCC5)C2)cc1`
> 100 µM

Continue with `N#CC1(C#N)C(=O)c2ccncc2C1=O`
> 100 µM

Would you kindly repeat that for CO[C@H]1/C=C/O[C@@]2(C)Oc3c(C)c(O)c4c(O)c(c(/C=N/N5C(C)CN(Cc6ccc(C#N)cc6)CC5C)c(O)c4c3C2=O)NC(=O)/C(C)=C\C=C\[C@H](C)[C@H](O)[C@@H](C)[C@@H](O)[C@@H](C)[C@H](OC(C)=O)[C@@H]1C (some centres undefined) ?
14 µM

Try this compound next: `C=C[C@@H]1CCC/C=C/[C@@H]2C[C@H](O)C[C@H]2[C@H](O)/C=C/C(=O)O1`
> 100 µM

Consider next the compound CC(C)(C)OC(=O)NC(Cc1ccccc1)C(=S)N1CCCC1 (centres undefined) in the same way.
> 100 µM

And `Cc1ccc(NC(=O)C(=O)C2C(=O)NC(=O)NC2=O)c(C)c1` ?
> 100 µM

Again, but for `COc1cc(/C=C/C(=O)c2ccccc2O)ccc1OCCCOc1cc2c(cc1OC)C(=O)N1CCC[C@H]1C=N2`
1.05 µM

Subsequent entry: COP(=O)(/C=C/C(NC(=O)C(Cl)(Cl)Cl)c1ccccc1)OC (centres undefined)
> 100 µM

Same lookup for `Cc1nc(-c2cccnc2)sc1C(=O)CC(=O)C(=O)Nc1cccc(NC(=O)C(=O)CC(=O)c2sc(-c3cccnc3)nc2C)n1` , please.
> 100 µM

Try this compound too: O=C1CC=C2C3CC4N(CCC45c4ccccc4N1C25)C/C3=C\CO (centres undefined)
> 100 µM

* * *

Exercise: state measured TGI for each of the compounds provided.
- Test system: HCT-116 colon
- EXPERIMENT_DESCRIPTION: NCI tumour cell line growth inhibition, 48 h

Item `[Mn+3].[O-][Cl+3]([O-])([O-])O.[O-]c1ccccc1C=NCCN1CC1.[O-]c1ccccc1C=NCCN1CC1` has what recorded TGI?
> 100 µM

What do you get for `COc1cc(OCCCN2CCCC2)ccc1Nc1ncc(Cl)c(Nc2ccccc2P(C)(C)=O)n1` ?
7.24 µM

Now consider `COc1ccc(NC(=O)c2ccc(C(F)(F)F)nc2Nc2ccc(Cl)cc2C)cc1Cl` .
13.1 µM

Now try `O=C(NC1CCCCC1)NC12CC3CC(CC(F)(C3)C1)C2` .
> 100 µM

Field entry: `CSc1nc2nccnc2c(=O)[nH]1`
> 100 µM

Same question for O=C(O)C(Cc1ccccc1)N=Cc1nc(-c2ccccc2)oc1O (configuration not stated) please.
> 100 µM

Now consider `CC1(C)N=C(N)N=C(N)N1c1cccc(CCCCc2ccc(Cl)c(S(=O)(=O)F)c2)c1` .
13.5 µM

Cool, now `Cc1cn(CC2(CO)CCC2)c(=O)[nH]c1=O`
> 100 µM

Can you handle `Oc1c(CN2CCCCC2)ccc2cccnc12` next?
9.18 µM

// repeat for `Clc1ccc(-c2nnc(-c3nn(-c4ccccc4)c4nc5ccccc5nc34)o2)cc1` and report
> 100 µM

Likewise for `Cc1cc2c3c(nc2c2cc[nH]c(C)c12)CCCC3` ?
3.35 µM

Now the same for `O=C(N/C(=C\c1cccc([N+](=O)[O-])c1)c1nc2c3c(ccc2[nH]1)C(=O)c1ccccc1C3=O)c1ccccc1`
> 100 µM

How about `Cc1nc(-c2cccnc2)sc1C(=O)CC(=O)C(=O)Nc1cccc(NC(=O)C(=O)CC(=O)c2sc(-c3cccnc3)nc2C)n1` ?
> 100 µM

Request: `C/C(COc1ccc2oc(-c3ccccc3)cc(=O)c2c1)=N\O`
> 100 µM

Same again, this time with CCCCCCCCCCCCCC(=O)OCC(CCS(=O)(=O)O[C@H]1CC[C@@]2(C)C(=CC[C@@H]3C2CC[C@]2(C)C(=O)CCC32)C1)OC(=O)CCCCCCCCCCCCC (some centres not stated)
> 100 µM

Proceed to `Cc1ccc([N+](=O)[O-])cc1NC(=O)C(=O)Cc1nc2ccc(C(=O)c3ccccc3)cc2[nH]c1=O`
> 100 µM

Subsequent entry: CC(=O)O[C@H]1CC[C@@]2(C)C(=CC[C@H]3C(CC#N)[C@@](C)(C#N)CCC32)C1 (some centres not stated)
> 100 µM

Could you do the same for `NC(CCl)=NCC12CC3CC(CC(C3)C1)C2` , please?
2.56 µM

Quick one: `CC(C)(C)c1ccc(NS(=O)(=O)c2ccc(N)cc2)cc1`
34.7 µM

Another compound: Cc1cn(CCCCOC(=O)NC(CCCN=C(N)N)C(=O)O)c(=O)[nH]c1=O (configuration not stated)
> 100 µM

Quick one: CCCCC1Nc2ccccc2-c2ccnc(Cl)c21 (configuration not stated)
32.3 µM

Here is the next compound: `NS(=O)(=O)c1ccc(N=Nc2ccc(O)cc2)cc1`
> 100 µM

Try this compound too: `CC1(C)C(CBr)=[N+]([O-])C(C)(C)N1O`
5.27 µM

Next record, please: `COc1c(C)c(C/C=C(\C)CC/C=C(\C)CC/C=C(\C)CC/C=C(\C)CCC=C(C)C)c(OC)c(OC)c1OC`
> 100 µM

Further, for `C/C(=N\NC(=O)c1ccccc1O)c1c(O)cc(C)oc1=O` ?
> 100 µM

Continue with `COc1ccc2cc(C(=O)N3CCC([C@@H](C)C(=O)NCc4ccc5c(c4)OCO5)CC3)[nH]c2c1`
> 100 µM

Repeat with `CC(=O)CCc1ccc(Oc2c3ccccc3nc3occc23)cc1`
79.5 µM

Okay, and `CCN(CC)CCOCCOCC1(c2ccc(Cl)c(Cl)c2)CCCCC1` ?
18.8 µM

Entry `CC[C@H](C)[C@H](NC(=O)c1ncccn1)C(=O)N(C)[C@H](C[C@@H](OC(C)=O)c1nc(C(=O)N[C@@H](Cc2ccccc2)C[C@H](C)C(=O)OC)cs1)C(C)C` please
> 25 µM

Now the compound CCCCSC1CCSc2c1ccc1ccccc21 (configuration not stated)
> 100 µM

Param item: CC(C)CC(C#CCCOC(=O)c1ccccc1)OC(=O)c1ccccc1 (configuration not stated)
> 10 µM

Cool, now `CC(=O)/C(=C/N1CC(=O)NC1=S)C(=O)Nc1ccccc1C`
> 100 µM

For `Brc1ccc2nc(-c3cccs3)nc(N3CCN(c4ccccc4)CC3)c2c1` then?
> 100 µM

Another: `Cn1cc(-c2ncnc3ccc(-c4cnc(Cl)c(NS(C)(=O)=O)c4)cc23)c2ccccc21`
98.1 µM

Another: `COC(Cc1cc(C(O)(c2ccc(C(C)(C)C)cc2)c2cc(CC(OC)(c3cc(C(OC)(c4ccc(C(C)(C)C)cc4)c4ccc(C(C)(C)C)cc4)c(C)cc3C)c3cc(C(OC)(c4ccc(C(C)(C)C)cc4)c4ccc(C(C)(C)C)cc4)c(C)cc3C)c(C)cc2C)c(C)cc1C)(c1cc(C(OC)(c2ccc(C(C)(C)C)cc2)c2ccc(C(C)(C)C)cc2)c(C)cc1C)c1cc(C(OC)(c2ccc(C(C)(C)C)cc2)c2ccc(C(C)(C)C)cc2)c(C)cc1C`
> 75 µM

Item: `O=C(O)CN1CCN2CCCCCCCCN(CC1)CCN(CC(=O)O)CC2`
> 100 µM

Queued: [N-]=[N+]=C1C(=O)C2CC3CC1CC2C3 (configuration not stated)
> 100 µM

Values were extracted from PubChem BioAssay (NCI).
